# assay_method_text: protein stability index of a GFP-peptide fusion (GPS, HEK-293T) (PSI 1-6); higher = more stable;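 further: 24-mer peptide tiles fused after GFP, lentivirally expressed, FACS-sorted into six equal bins by GFP/DsRed ratio, decoded by Illumina sequencing, PSI is the read-weighted mean bin number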
# assay_setup: treatment: MLN4924 1 uM, 8 h; c terminus: a fixed tail appended
Answer f if protein stability index is under 3, and t if it is 3 or more.

# biopolymer_sequence, assigned_label
rows = [
    ("AGLSLLSPSVMRLVHTQEPGEWLE [ALKBH7]", "f"),
    ("YQEASNLEQFVTRFLLKETLNQLQ [NECAB1]", "f"),
]

Given the entry AQHKDRSTQLEMQLEKPKPVKPVT [MNAT1] , answer whether its protein stability index meets or surpasses 3.
t

Next sequence: GRGGEPRAYFMSDTREEKRFLGEG [CHGB]
t

Next sequence: AWGFPENATAPRSPSHSPEHRRTA [ELOA2]
t

Next sequence: GKKFLLLSINRYERKKNLTLALEA [ALG2]
f

Next sequence: SLENTLTESEAHYSSQLSQVQSLI [KRT34]
t

---

# assay_method_text: protein stability index of a GFP-peptide fusion (GPS, HEK-293T) (PSI 1-6); higher = more stable
# assay_setup: treatment: DMSO; c terminus: a fixed tail appended
measurement_name: protein stability index
Form rule: numeric answer, no unit written next to it.

# biopolymer_sequence, measured
data = [
    ("FVDSIRRQFEFSVDSFQIILDSLL [TENT5C]", 2.33),
    ("FVGYNPYSHLAYNNYRLGGNPSTN [SMARCE1]", 2.87),
    ("MELQKGKGAAAAAAASGAAGGGGG [INTS3]", 5.19),
]

Then this sequence:
Value lookup for protein stability index; key = SDCCRKLLSSGFEIDTPDKFGRTC [ANKRD44]
2.8

---

# assay_method_text: protein stability index of a GFP-peptide fusion (GPS, HEK-293T) (PSI 1-6); higher = more stable
# assay_setup: treatment: MLN4924 1 uM, 8 h; c terminus: a fixed tail appended
Answer 0.0 if protein stability index is under 3, and 1.0 if it is 3 or more.

Before answering, review these 3 worked examples.
# biopolymer_sequence, assigned_label
records = [
    ("PPLPTYHVLLEGEGLGQSLGNFKD [TRIM29]", 1.0),
    ("LYRDDVLIKPSRVVAILAAACLLQ [GMCL1]", 0.0),
    ("YSFYLFHPLAYGMVGPLAQDPQSP [POMT2]", 0.0),
]

Given the entry VTGMELEFKRLASSKAHTSRFISA [PTPRD] , answer whether its protein stability index meets or surpasses 3.
0.0

Next sequence: YRRVNELLLSILNPTRQDESIQRI [ZER1]
0.0

Next sequence: STGTSRWPSAKSAGWTLATLGEQG [SCNN1D]
1.0

Next sequence: SYFKCVQKEVLPSMRKIVATWMLE [CCND1]
0.0

Next sequence: ICFCCEEFQPAKCTDKENALKLFP [FAM189A2]
0.0

Next sequence: FKAKEAAALGSRGSCSTEVEKETQ [ATP6V1G1]
1.0

---

# assay_method_text: protein stability index of a GFP-peptide fusion (GPS, HEK-293T) (PSI 1-6); higher = more stable
# assay_setup: treatment: MLN4924 1 uM, 8 h; c terminus: a fixed tail appended
// reported protein stability index for each item listed
Form rule: numeric answer, no unit written next to it.

Sample answers from the record:
# biopolymer_sequence, protein stability index
records = [
    ("GGGGTQRLPRAIGMSLAKELIFSA [AUH]", 2.69),
    ("SRIYGQAMAIINGSLYVFGGTTGY [KLHDC10]", 2.87),
    ("GELGSIGDHERAIDFSPYLEPLGA [CEBPB]", 4.18),
    ("WQDSDTVKLLVDLELSYGFENGQK [TOR1AIP2]", 2.65),
    ("MLVDGIDPNFKMEHQNKRSPLHAA [EHMT1]", 3.67),
    ("LVDEEEKVLIQKNLGPKSKVLILR [ADD1]", 2.84),
    ("SIYGIPHSTLEYKVKERLGTLKNP [LCOR]", 3.2),
    ("PGAGDPAPGIGPPEPWPGGCTGDE [MYCL]", 5.16),
]

Value lookup for protein stability index; key = EQCLPSLENSKYCRFNQDPEAVDE [ATE1]
5.16

Next sequence: RIDGKLDSPSRSPSKVEVTEKTTT [C2CD2L]
5.46

Next sequence: SYVHILSAILQFPSTLGRCKAFST [OR10K2]
3.01

Next sequence: TLAQTISEAAIGGAMLGQTTSEEA [HDAC6]
4.78

Next sequence: IICEAHKVLGNRWAEIAKMLPGRT [MYBL2]
2.2

Next sequence: VTSQATLLTITKAHSNAISNCCFT [WDR88]
2.18

Next sequence: EIANEDRKHALERFEQEAVAVDSN [CCDC89]
5.31

Next sequence: LLQHLLEACGRCEEVPEAYVDIHT [PYCR3]
2.42

Next sequence: TGLNNGRIKIWDVYTGKLLLNLVD [WSB1]
2.25

Next sequence: CGDVHGQFHDLMELFRIGGKSPDT [PPP2CA]
2.84

Next sequence: DQEQGSSFQMSEGSEAAVIPLDLG [FAM189A2]
5.48

Next sequence: EANNLAAAASAKDIYYNNMEEVCG [ATL3]
4.68

Next sequence: QDFNTMFTNCYIYNKPTDDIVLMA [BRD3]
2.23

Next sequence: FVGYNPYSHLAYNNYRLGGNPSTN [SMARCE1]
2.54

Next sequence: SIERSHRIATETDQIGSEIIEELG [VTI1B]
5

Next sequence: RTFGPPPSLSPGAFSYSSSSRFSS [PRPH]
3.8
